system: A498 renal; assay: NCI tumour cell line growth inhibition, 48 h; in the data active means GI50 below about 0.43 µM; inactive means the rest
Could you please pick one outcome from this set? yes (active), no (inactive)

Previously resolved entries follow.
compound: COc1cc(/C=C2\C(=O)Nc3ccccc32)cc(OC)c1O
classification: no

compound: CCOC(=O)/C(C#N)=C\C=C(\Sc1nc2ccccc2s1)c1ccc(Cl)cc1
classification: no

compound: C#CC[C@@H]1C[C@]2(C)[C@H]3CC[C@@H]4[C@H]5C(C(=C)C)CC[C@]5(C(=O)NCCCCN)CC[C@@]4(C)[C@]3(C)CC[C@H]2C(C)(C)[C@H]1OC(C)=O (some centres undefined)
classification: no

compound: C[CH2][Sn]([CH2]C)([O]C(=O)c1c(F)cccc1F)[O][Sn]([CH2]C)([CH2]C)[O]C(=O)c1c(F)cccc1F
classification: no

compound: C[CH2][Pb]([CH2]C)([CH2]C)[O]C(=O)COC
classification: yes

compound: O=C1/C=C/[C@@H](O)[C@@H]2C[C@@H](O)C[C@H]2/C=C/CCC[C@H](CCc2ccccc2)O1
classification: yes

compound: Cn1ccc2c1SSSSS2
classification: no

compound: O=C(Nc1ccc(Cl)cc1)Nc1ccc(Cl)c(C(F)(F)F)c1
classification: no

Next, consider the following compound.
Incoming: Would you mind telling me which call this test gave `Nc1nc2cc(O)ccc2n2cc3c(F)cccc3c12` ?
Outgoing: no
